Values were extracted from patent US6858210B1.

Recorded Max (maximum inhibition observed at concentrations tested) values for a group of molecules are listed next.
test system: affinity purified β2GPI-dependent antiphospholipid antibody; assay: Competitive inhibition ELISA: recombinant β2GPI proteins compete for antibody binding to coated full length recombinant β2GPI; set-up: species or system human; settings: Ab 6203
PROPERTY MEASURED: Max (maximum inhibition observed at concentrations tested) (%)

| MOLECULE | OBSERVED |
| --- | --- |
| -2345: recombinant β2GPI deletion mutant with domains 2-5 (protein) GRTPRVCPFAGILENGAVRYTTFEYPNTISFSCNTGFYLNGADSAKCTEEGKWSPELPVCAPIICPPPSIPTFATLRVYKPSAGNNSLYRDTAVFECLPQHAMFGNDTITCTTHGNWTKLPECREVKCPFPSRPDNGFVNYPAKPTLYYKDKATFGCHDGYSLDGPEEIECTKLGNWSAMPSCKASCKLPVKKATVVYQGERVKIQEKFKNGMLHGDKVSFFCKNKEKKCSYTEDAQCIDGTIEVPKCFKEHSSLAFWKTDASDVKPCGHHHHHH | 10 |
| 1----: recombinant β2GPI protein with domain 1 only (SEQ ID NO:4 region), His6 tail (protein) GRTCPKPDDLPFSTVVPLKTFYEPGEEITYSCKPGYVSRGGMRKFICPLTGLWPINTLKCTPRVGHHHHHH | 60 |
| 123--: recombinant β2GPI deletion mutant with domains 1, 2, 3 (protein) GRTCPKPDDLPFSTVVPLKTFYEPGEEITYSCKPGYVSRGGMRKFICPLTGLWPINTLKCTPRVCPFAGILENGAVRYTTFEYPNTISFSCNTGFYLNGADSAKCTEEGKWSPELPVCAPIICPPPSIPTFATLRVYKPSAGNNSLYRDTAVFECLPQHAMFGNDTITCTTHGNWTKLPECGHHHHHH | 75 |
